test system: L1210 leukemia ip in BDF1 mice, survival T/C; experiment: NCI In Vivo Anticancer Drug Screen. Data for tumor model L1210 Leukemia (intraperitoneal) in B6D2F1 (BDF1) mice; conditions: endpoint: mean survival time; dose: 50.0 mg/kg/injection; schedule: Q01DX009 (ip); vehicle: saline; higher = longer survival
Inconclusive results and toxic doses are left out.
Recorded T/C, one value per entry.
readout type: T/C

compound=CCNCCCCCCNCC result="93 % of control"
compound="Nc1nc2nc[nH]c2c(N)c1Br (tested in a mixture with another compound)" result="95 % of control"
compound=Nc1ccc(N=Nc2ccc(C(=O)Nc3ccc4cc(S(=O)(=O)O)ccc4c3)cc2)c(N)c1N=Nc1ccc(N=Nc2ccc(O)c(C(=O)O)c2)cc1 result="94 % of control"
compound=C#CCSC(=N)N result="93 % of control"
compound=CCCCOCCC1CCNCC1 result="101 % of control"
compound=O=C(/C=C/c1ccc2c(c1)OCO2)/C=C/c1ccc2c(c1)OCO2 result="88 % of control"
compound="COc1ccc(Oc2cc(CC3c4cc(OC)c(OC)cc4CCN3C)c([N+](=O)[O-])cc2OC)cc1OC (configuration not stated)" result="96 % of control"
compound=Cc1ccc(C(C)C)c(OCC2=NCCN2C)c1 result="100 % of control"
compound=Nc1ncnc2c1ncn2CCCCl result="100 % of control"
compound="CC1C(=O)OC2CC[N+]3(C)CC=C(COC(=O)C(C)(O)C1(C)O)C23 (configuration not stated)" result="92 % of control"
compound=CCC1CCNCC1 result="102 % of control"
compound=C[N+](C)(C)C1=CC=CC=C1.Br[Br-]Br result="105 % of control"
compound="CNC1CCCCC1O (configuration not stated)" result="97 % of control"
compound=CCN(CC)CCOc1ccc(Br)cc1 result="102 % of control"
compound=OCCCN1CCC2(CC1)SSC1(CCN(CCCO)CC1)S2 result="95 % of control"
compound=N#CCCSC(=N)N result="118 % of control"
compound=CC1(C)C(=O)NC(=O)C1(C)C result="102 % of control"
compound=CC(C)N1CN(C(C)C)CN(C(C)C)C1 result="93 % of control"
compound="CCOC(=O)C1(C(C)C)OC2(O)CCCCCN2C1=O (configuration not stated)" result="95 % of control"
compound=O=C(O)C(O)C(=O)O result="95 % of control"
compound="COc1cc2c(cc1OCc1ccccc1)C=CN(C(=O)c1ccccc1)C2C#N (configuration not stated)" result="94 % of control"
compound="CNC(C)COc1ccccc1 (configuration not stated)" result="98 % of control"
